Cited source for all entries: PubChem BioAssay AID2060327

Please respond with reported viability, T/C for every item in the list.
Tested on: PC-3 multi-cell spheroids, viability
method.notes: Anticancer human tumor PC-3 cell line growth inhibition [IpAb];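 also: spheroids exposed to compounds for 7 days before readout; 100% = DMSO vehicle control wells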
condition.notes: second compound 0.01 µM; first compound 0.0316 µM; stronger effect = lower value
One number for each entry, in %.

>  <compound>
CC(C)n1nc(-c2ccc3oc(N)nc3c2)c2c(N)ncnc21 + CCN1CCN(Cc2ccc(Nc3ncc(F)c(-c4cc(F)c5nc(C)n(C(C)C)c5c4)n3)nc2)CC1

>  <study.system>
PC-3 multi-cell spheroids, viability

>  <viability, T/C (%)>
11

$$$$
>  <compound>
CC1(C)CCC(CN2CCN(c3ccc(C(=O)NS(=O)(=O)c4ccc(NCC5CCOCC5)c([N+](=O)[O-])c4)c(Oc4cnc5[nH]ccc5c4)c3)CC2)=C(c2ccc(Cl)cc2)C1 + CCN1CCN(Cc2ccc(Nc3ncc(F)c(-c4cc(F)c5nc(C)n(C(C)C)c5c4)n3)nc2)CC1

>  <study.system>
PC-3 multi-cell spheroids, viability

>  <viability, T/C (%)>
102

$$$$
>  <compound>
C=CC(=O)N1CCN(c2nc(=O)n(-c3c(C)ccnc3C(C)C)c3nc(-c4c(O)cccc4F)c(F)cc23)C(C)C1 (stereo not given) + CCN1CCN(Cc2ccc(Nc3ncc(F)c(-c4cc(F)c5nc(C)n(C(C)C)c5c4)n3)nc2)CC1

>  <study.system>
PC-3 multi-cell spheroids, viability

>  <viability, T/C (%)>
84.3

$$$$
>  <compound>
Cc1nc(NC(=O)N2CCCC2C(N)=O)sc1-c1ccnc(C(C)(C)C(F)(F)F)c1 (stereo not given) + CCN1CCN(Cc2ccc(Nc3ncc(F)c(-c4cc(F)c5nc(C)n(C(C)C)c5c4)n3)nc2)CC1

>  <study.system>
PC-3 multi-cell spheroids, viability

>  <viability, T/C (%)>
68.2

$$$$

Please look at the following compound next.
Using known records, supply viability, T/C for C=CCn1c(=O)c2cnc(Nc3ccc(N4CCN(C)CC4)cc3)nc2n1-c1cccc(C(C)(C)O)n1 + CCN1CCN(Cc2ccc(Nc3ncc(F)c(-c4cc(F)c5nc(C)n(C(C)C)c5c4)n3)nc2)CC1 66.6

---

For each entry below, report its viability, T/C value.
Tested on: PC-3 multi-cell spheroids, viability
method.notes: Anticancer human tumor PC-3 cell line growth inhibition [IpAb];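 also: spheroids exposed to compounds for 7 days before readout; 100% = DMSO vehicle control wells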
condition.notes: second compound 0.316 µM; first compound 0.949 µM; stronger effect = lower value

Quick batch: viability, T/C for everything below.
1. Cn1cnc2c(F)c(Nc3ccc(Br)cc3Cl)c(C(=O)NOCCO)cc21 + CCN1CCN(Cc2ccc(Nc3ncc(F)c(-c4cc(F)c5nc(C)n(C(C)C)c5c4)n3)nc2)CC1
2. Cn1cnc2c(F)c(Nc3ccc(Br)cc3Cl)c(C(=O)NOCCO)cc21 + CC(C)NCC(C(=O)N1CCN(c2ncnc3c2C(C)CC3O)CC1)c1ccc(Cl)cc1
3. CC(C)(C)c1cnc(CSc2cnc(NC(=O)C3CCNCC3)s2)o1 + CCN1CCN(Cc2ccc(Nc3ncc(F)c(-c4cc(F)c5nc(C)n(C(C)C)c5c4)n3)nc2)CC1
4. CC(C)(C)c1cnc(CSc2cnc(NC(=O)C3CCNCC3)s2)o1 + CC(C)NCC(C(=O)N1CCN(c2ncnc3c2C(C)CC3O)CC1)c1ccc(Cl)cc1

1. 48.1%
2. 45%
3. 5.66%
4. 5.07%
